B1: KLHL14 (parent)
chain: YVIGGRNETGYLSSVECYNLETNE

Variants of: B1
methodNotes: protein stability index of a GFP-peptide fusion (GPS, HEK-293T) (PSI 1-6); higher = more stable;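 also: lentivirally expressed fusions sorted by FACS into six bins by GFP to DsRed ratio, PSI derived from sequencing read proportions per bin multiplied by bin number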
conditions: c terminus: a fixed tail appended
readoutType: protein stability index
Numbers only.

- N19K: 2.13
- I3L: 1.84
- E21S: 2.29
- N19E: 2.22
- V15W: 2.21

For every record below, what is its protein stability index?
1. G5E
2. E8I
3. E24R
4. V15H
5. Y18K
6. S13R
7. S13K

Result:
3.15
1.81
2.17
2.24
1.96
2.23
1.68

For every record below, what is its protein stability index?
1. L20H
2. N19V
3. Y1S
4. L20Y
5. Y18H
6. S13M

Result:
[2.34, 1.66, 4.63, 2.02, 2.32, 1.91]

For every record below, what is its protein stability index?
1. I3C
2. I3Q
3. S14G
4. G4C

Result:
1: 1.66; 2: 2.06; 3: 2.31; 4: 1.75
